Observed IC50 for human thrombin (Homo sapiens), reported per entry below.

| compound | result units | IC50 |
| --- | --- | --- |
| C[C@@H]1CCC[C@H](C)N1CCCCCN1C(=O)[C@H](c2cc(C(=N)N)ccc2O)Oc2ccccc21 | nM | 1390 |
| C[C@@H]1CCC[C@H](C)N1CCCCCN1C(=O)C(c2cccc(C(=N)N)c2)Sc2ccccc21 (some centres unmarked) | nM | 1780 |

---

- system: human tissue factor/factor VIIa complex (Homo sapiens, UniProt P08709)
- Construct: 50 μL human factor VIIa (Enzyme Research Laboratories); purchased Enzyme Research Laboratories (factor VIIa); American Diagnostica (tissue factor)
- Sequence (P08709 213-466 limits assumed): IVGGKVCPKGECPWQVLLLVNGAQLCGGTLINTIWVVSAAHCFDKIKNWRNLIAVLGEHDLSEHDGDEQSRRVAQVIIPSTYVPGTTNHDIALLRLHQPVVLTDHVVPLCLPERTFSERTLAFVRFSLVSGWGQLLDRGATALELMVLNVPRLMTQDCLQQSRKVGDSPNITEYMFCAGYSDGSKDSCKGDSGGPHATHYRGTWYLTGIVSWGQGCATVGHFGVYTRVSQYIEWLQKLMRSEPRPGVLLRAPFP
- Sequence (P08709 61-212 limits assumed): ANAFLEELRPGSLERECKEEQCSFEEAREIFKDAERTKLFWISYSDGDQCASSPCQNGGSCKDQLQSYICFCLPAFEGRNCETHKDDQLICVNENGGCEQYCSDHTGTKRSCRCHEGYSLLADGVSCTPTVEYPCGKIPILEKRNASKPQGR
- Sequence (P13726 33-295 partner): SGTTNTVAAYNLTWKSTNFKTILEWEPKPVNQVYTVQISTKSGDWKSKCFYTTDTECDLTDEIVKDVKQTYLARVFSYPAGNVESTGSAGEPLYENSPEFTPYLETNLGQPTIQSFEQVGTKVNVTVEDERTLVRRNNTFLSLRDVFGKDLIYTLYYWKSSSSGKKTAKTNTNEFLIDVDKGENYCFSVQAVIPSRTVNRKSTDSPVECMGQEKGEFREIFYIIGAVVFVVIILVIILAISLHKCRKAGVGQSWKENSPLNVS
- test description: Determination of tissue factor/factor VIIa inhibition (Spectrozyme VIIa)
- Format: biochemical
- condition context: read-out: VIIa % inhib. @ 100 μM
reported property: inhibition at 100 µM (%)

| compound | reported property | test value |
| --- | --- | --- |
| C[C@@H]1CCC[C@H](C)N1CCCCCN1C(=O)C(c2cccc(C(=N)N)c2)Sc2ccccc21 (stereo partly shown) | inhibition at 100 µM | 31 |
| C[C@@H]1CCC[C@H](C)N1CCCCCN1C(=O)C(c2cc(C(=N)N)ccc2O)Oc2ccccc21 (stereo partly shown) | inhibition at 100 µM | 29 |
| C[C@@H]1CCC[C@H](C)N1CCCCCN1C(=O)[C@H](c2cc(C(=N)N)ccc2O)Oc2ccccc21 | inhibition at 100 µM | 37 |
| C[C@@H]1CCC[C@H](C)N1CCCCCN1C(=O)C(c2cccc(C(=N)N)c2)Oc2ccccc21 (stereo partly shown) | inhibition at 100 µM | 30 |
